target: Calcium-dependent protein kinase 4 (Plasmodium falciparum (isolate 3D7)) (UniProt Q8IBS5); assay: PfCDPK4 kinase inhibitors, biochemical, TCAMS library (AID 1159588); details: recombinant PfCDPK4, Kinase-Glo ATP depletion luminescence
Sequence (Q8IBS5 whole entry, looked up): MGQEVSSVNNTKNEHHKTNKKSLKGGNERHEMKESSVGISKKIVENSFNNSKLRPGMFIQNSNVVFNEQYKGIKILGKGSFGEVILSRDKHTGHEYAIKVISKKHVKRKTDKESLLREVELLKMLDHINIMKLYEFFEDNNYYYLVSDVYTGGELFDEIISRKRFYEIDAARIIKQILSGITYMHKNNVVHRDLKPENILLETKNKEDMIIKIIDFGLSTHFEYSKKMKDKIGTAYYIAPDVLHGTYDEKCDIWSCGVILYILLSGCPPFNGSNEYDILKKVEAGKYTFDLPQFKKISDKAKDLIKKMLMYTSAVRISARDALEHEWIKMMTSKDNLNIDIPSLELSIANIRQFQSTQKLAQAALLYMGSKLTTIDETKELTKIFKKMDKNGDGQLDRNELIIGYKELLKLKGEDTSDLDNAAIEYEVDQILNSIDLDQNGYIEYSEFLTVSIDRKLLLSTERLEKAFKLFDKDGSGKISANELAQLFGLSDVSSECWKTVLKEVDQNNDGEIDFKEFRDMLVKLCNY
Results with a measured potency or affinity are listed apart. Activity calls are given as the source filed them. No cut-off is given here; in the data, nearly all actives have IC50 up to about 0.91 µM.
Reported Endpoint: outcome

{"columns": ["Molecule", "Assay System", "Result"],
 "data": [
  ["O=S(=O)(NCCN1CCCC1)c1ccc(-c2ccc(CNC3Cc4ccccc4C3)cc2)cc1F", "Calcium-dependent protein kinase 4 (Plasmodium falciparum (isolate 3D7)) (UniProt Q8IBS5)", "inactive"],
  ["C/C=C/COc1ccc2ccccc2c1CNCCCCCCCCNCc1c(OC/C=C/C)ccc2ccccc12", "Calcium-dependent protein kinase 4 (Plasmodium falciparum (isolate 3D7)) (UniProt Q8IBS5)", "inactive"],
  ["CS(=O)(=O)N(c1ccccc1)c1cc(C(=O)N[C@@H](Cc2ccccc2)[C@H](O)CNC2CCCCC2)cc(N2CCCC2=O)c1", "Calcium-dependent protein kinase 4 (Plasmodium falciparum (isolate 3D7)) (UniProt Q8IBS5)", "inactive"],
  ["CN(C)CCOc1cccc(-c2cnc(N)c(-c3nc4ccc(S(C)(=O)=O)cc4[nH]3)c2)c1", "Calcium-dependent protein kinase 4 (Plasmodium falciparum (isolate 3D7)) (UniProt Q8IBS5)", "inactive"],
  ["Cc1nnsc1C(=O)Nc1cccc(-c2cccc(-c3nc4ccc(F)cc4[nH]3)c2)c1", "Calcium-dependent protein kinase 4 (Plasmodium falciparum (isolate 3D7)) (UniProt Q8IBS5)", "inactive"],
  ["O=C(C=Cc1ccc(Cl)c(Cl)c1)NCCCCCN1CCC(CCNC(=O)c2cccc3ccccc23)CC1", "Calcium-dependent protein kinase 4 (Plasmodium falciparum (isolate 3D7)) (UniProt Q8IBS5)", "inactive"],
  ["Cc1ccc2[nH]c3c(NCCCN(C)C)ncnc3c2c1", "Calcium-dependent protein kinase 4 (Plasmodium falciparum (isolate 3D7)) (UniProt Q8IBS5)", "inactive"],
  ["NC(N)=NN=Cc1c2ccccc2c(Cl)c2ccc(Cl)cc12", "Calcium-dependent protein kinase 4 (Plasmodium falciparum (isolate 3D7)) (UniProt Q8IBS5)", "inactive"],
  ["CCc1c(C(=O)NC2CCC(N3CCC(c4ccccc4OC)CC3)CC2)[nH]c2ccc(Br)cc12 (centres undefined)", "Calcium-dependent protein kinase 4 (Plasmodium falciparum (isolate 3D7)) (UniProt Q8IBS5)", "inactive"]
]}

These entries and their values trace back to PubChem BioAssay.
